assay-protocol: Microdialysis (striatal dialysate and blood) in cynomolgus monkeys
Type: in vivo, cynomolgus monkey
experimental-conditions: cynomolgus monkey, in vivo, 300 mg/kg, individual Cyno; Fosmetpantotentate 300 mg/kg PO; corrected for dilution; post-dose, time 2.5 hr; read-out: Fosmetpantotenate Dialysate Concentration
observable: concentration at 2.5 h
// unit must come after the numeric part

q: Reported concentration at 2.5 h for COC(=O)CCNC(=O)[C@H](O)C(C)(C)COP(=O)(N[C@@H](C)C(=O)OC)Oc1ccccc1 (mixture of isomers) [Fosmetpantotenate] : what is it?
a: 7.12 nM

* * *

assay-protocol: Pharmacokinetics in whole blood, CD-1 mice
experimental-conditions: male, CD-1, mouse, in vivo, 100 mg/kg, Mean Conc., blood; fosmetpantotenate 100 mg/kg PO; 1 hr
observable: concentration at 1 h (nM)
Write the answer as a number in nM, unit excluded.

q: Reported concentration at 1 h for COC(=O)CCNC(=O)[C@H](O)C(C)(C)COP(=O)(N[C@@H](C)C(=O)OC)Oc1ccccc1 (mixture of isomers) [Fosmetpantotenate] : what is it?
a: 1.52

* * *

assay-protocol: in vivo
experimental-conditions: male, C57Bl6, mouse, po, 700 mg/kg, PA Concentration in Mouse Striatal Dialysate (Corrected for Dilution)
observable: concentration at 1 h (nM)
Write the answer as a number in nM, unit excluded.

q: Reported concentration at 1 h for CC(C)(CO)[C@@H](O)C(=O)NCCC(=O)O [PA, pantothenate] : what is it?
a: 77.7

* * *

assay-protocol: Pharmacokinetics in whole blood, CD-1 mice
experimental-conditions: male, CD-1, mouse, in vivo, 700 mg/kg, Fosmetpantotenate Mean Conc., male CD-1 mice, fosmetpantotenate 700 mg/kg oral, blood, 0.033 hr, mean, BQL <1.02 nM
observable: concentration at 0.033 h
// unit must come after the numeric part

q: Reported concentration at 0.033 h for COC(=O)CCNC(=O)[C@H](O)C(C)(C)COP(=O)(N[C@@H](C)C(=O)OC)Oc1ccccc1 (mixture of isomers) [Fosmetpantotenate] : what is it?
a: 135 nM

* * *

assay-protocol: in vivo
experimental-conditions: male, CD-1, mouse, po, 700 mg/kg
observable: AUC (µM·h)
Write the answer as a number in µM·h, unit excluded.

q: Reported AUC for CC(C)(CO)[C@@H](O)C(=O)NCCC(=O)O [PA, pantothenate] : what is it?
a: 10.5

* * *

assay-protocol: Pharmacokinetics in whole blood, Sprague-Dawley rats
experimental-conditions: Sprague-Dawley, rat, whole blood, po, 100 mg/kg, Whole Blood Conc. of compound 2, Sprague-Dawley rats, single 100 mg/kg RE-024-02 PO, time 8, LLOQ 3 ng/mL
observable: concentration at 8 h (ng/mL)
Write the answer as a number in ng/mL, unit excluded.

q: Reported concentration at 8 h for COC(=O)CCNC(=O)[C@@H]1OP(=O)(O)OCC1(C)C [Compound 2] : what is it?
a: 6.42

* * *

assay-protocol: Microdialysis (striatal dialysate and blood) in cynomolgus monkeys
Format: in vivo, cynomolgus monkey
experimental-conditions: cynomolgus monkey, in vivo, 300 mg/kg, individual Cyno; Fosmetpantotentate 300 mg/kg PO; corrected for dilution; post-dose, time 0.5 hr; read-out: Fosmetpantotenate Dialysate Concentration
Experimental: Monkeys were sedated by intramuscular (i.m.) ketamine administration and cannulated for intravenous (i.v.) administration of propofol infusion (initiated 15–30 min after ketamine administration). […] NIFTI-compatible images were loaded into 3D viewer software (MRIcro version 1.40 build 1), and the stereotaxic zero in the MRI image was determined using the coordinates of the earbar-tips. […]
observable: concentration at 0.5 h (nM)
Write the answer as a number in nM, unit excluded.

q: Reported concentration at 0.5 h for COC(=O)CCNC(=O)[C@H](O)C(C)(C)COP(=O)(N[C@@H](C)C(=O)OC)Oc1ccccc1 (mixture of isomers) [Fosmetpantotenate] : what is it?
a: 2060

* * *

assay-protocol: Metabolic stability in monkey liver microsomes
Assay type: in vitro ADME
experimental-conditions: pooled liver microsomes, pH 7.4, 1 μM, NADPH
observable: half-life at 1 μM
// unit must come after the numeric part

q: Reported half-life at 1 μM for COC(=O)CCNC(=O)[C@H](O)C(C)(C)COP(=O)(N[C@@H](C)C(=O)OC)Oc1ccccc1 (mixture of isomers) [Fosmetpantotenate] : what is it?
a: 11 min

* * *

assay-protocol: in vivo
experimental-conditions: male, Sprague-Dawley, rat, po, 100 mg/kg
observable: Cmax (nM)
Write the answer as a number in nM, unit excluded.

q: Reported Cmax for CC(C)(CO)[C@@H](O)C(=O)NCCC(=O)O [PA, pantothenate] : what is it?
a: 1340

* * *

assay-protocol: Microdialysis (brain striatal dialysate) in C57Bl6 mice
experimental-conditions: male, C57Bl6, mouse, striatal dialysate (brain microdialysate), other: direct infusion into the striatum via cannula, 125 µg per animal
observable: concentration at 1.5 h (µM)
Write the answer as a number in µM, unit excluded.

q: Reported concentration at 1.5 h for COC(=O)CCNC(=O)[C@H](O)C(C)(C)COP(=O)(N[C@@H](C)C(=O)OC)Oc1ccccc1 (mixture of isomers) [Fosmetpantotenate] : what is it?
a: 31.2

* * *

assay-protocol: Pharmacokinetics in whole blood, CD-1 mice
experimental-conditions: male, CD-1, mouse, whole blood, po, 100 mg/kg, Whole Blood Conc. of compound 3, CD-1 mice, single 100 mg/kg RE-024-02 PO, 2 hr, LLOQ 6 ng/mL
observable: concentration at 2 h (ng/mL)
Write the answer as a number in ng/mL, unit excluded.

q: Reported concentration at 2 h for CC1(C)COP(=O)(O)O[C@H]1C(=O)NCCC(=O)O [Compound 3] : what is it?
a: 6.7

* * *

assay-protocol: Pharmacokinetics in whole blood, CD-1 mice
experimental-conditions: male, CD-1, mouse, whole blood, po, 300 mg/kg, Whole Blood Conc. of compound 2, CD-1 mice, single 300 mg/kg RE-024-02 PO, 0.333 hr, LLOQ 3 ng/mL
observable: concentration at 0.333 h (ng/mL)
Write the answer as a number in ng/mL, unit excluded.

q: Reported concentration at 0.333 h for COC(=O)CCNC(=O)[C@@H]1OP(=O)(O)OCC1(C)C : what is it?
a: 443

* * *

assay-protocol: in vivo
experimental-conditions: male, C57Bl6, mouse, po, 700 mg/kg, PA Concentration in Mouse Striatal Dialysate (Corrected for Dilution), Mean
observable: concentration at 1 h (nM)
Write the answer as a number in nM, unit excluded.

q: Reported concentration at 1 h for CC(C)(CO)[C@@H](O)C(=O)NCCC(=O)O [PA, pantothenate] : what is it?
a: 75.6

* * *

assay-protocol: Microdialysis (striatal dialysate and blood) in cynomolgus monkeys
Format: in vivo, cynomolgus monkey
experimental-conditions: cynomolgus monkey, in vivo, 300 mg/kg, individual Cyno; Fosmetpantotentate 300 mg/kg PO; post-dose, time 3 hr; read-out: Fosmetpantotenate Blood Concentration
observable: concentration at 3 h (nM)
Write the answer as a number in nM, unit excluded.

q: Reported concentration at 3 h for COC(=O)CCNC(=O)[C@H](O)C(C)(C)COP(=O)(N[C@@H](C)C(=O)OC)Oc1ccccc1 (mixture of isomers) [Fosmetpantotenate] : what is it?
a: 227

* * *

assay-protocol: Pharmacokinetics in whole blood, cynomolgus monkeys
experimental-conditions: cynomolgus monkey, in vivo, po, 300 mg/kg, Concentration of compound 1 in whole blood, cynomolgus monkeys, single oral 300 mg/kg fosmetpantotenate, 0.5 hr, sum of diastereomers, LLOQ 1.58 nM
observable: concentration at 0.5 h (nM)
Write the answer as a number in nM, unit excluded.

q: Reported concentration at 0.5 h for COC(=O)CCNC(=O)[C@@H]1OP(=O)(N[C@@H](C)C(=O)OC)OCC1(C)C (stereo partly shown) [Compound 1] : what is it?
a: 2480

* * *

assay-protocol: Pharmacokinetics in whole blood, CD-1 mice
experimental-conditions: male, CD-1, mouse, whole blood, po, 100 mg/kg, Whole Blood Conc. of compound 2, CD-1 mice, single 100 mg/kg RE-024-02 PO, 8 hr, LLOQ 10.2 nM
observable: concentration at 8 h (nM)
Write the answer as a number in nM, unit excluded.

q: Reported concentration at 8 h for COC(=O)CCNC(=O)[C@@H]1OP(=O)(O)OCC1(C)C : what is it?
a: 11.9

* * *

assay-protocol: Microdialysis (brain striatal dialysate) in C57Bl6 mice
experimental-conditions: male, C57Bl6, mouse, striatal dialysate (brain microdialysate), other: direct infusion into the striatum via cannula, 125 µg per animal
observable: concentration at 1 h (µM)
Write the answer as a number in µM, unit excluded.

q: Reported concentration at 1 h for COC(=O)CCNC(=O)[C@H](O)C(C)(C)COP(=O)(N[C@@H](C)C(=O)OC)Oc1ccccc1 (mixture of isomers) [Fosmetpantotenate] : what is it?
a: 463

* * *

Kindly state % Parent AUCAll for each of the entries shown.
assay-protocol: Pharmacokinetics in whole blood, Sprague-Dawley rats
experimental-conditions: Sprague-Dawley rat; 700 mg/kg PO; metabolite AUCall/Parent AUCall x 100
Write the answer as a number in %, unit excluded.

q: Reported % Parent AUCAll for COC(=O)CCNC(=O)[C@@H]1OP(=O)(N[C@@H](C)C(=O)OC)OCC1(C)C (stereo partly shown) [Compound 1] : what is it?
a: 22

q: Try the compound CC1(C)COP(=O)(O)O[C@H]1C(=O)NCCC(=O)O [Compound 3]
a: 209

q: Try the compound COC(=O)CCNC(=O)[C@@H]1OP(=O)(O)OCC1(C)C [Compound 2]
a: 220

q: Try the compound COC(=O)[C@H](C)NP(=O)(OCC(C)(C)[C@@H](O)C(=O)NCCC(=O)O)Oc1ccccc1 (stereo partly shown) [Compound 4]
a: 849
